meta.source: patent US20110251212A1

# TESTED ON: NMDA Receptor (NR1/NR2B Receptor) (Rattus norvegicus, UniProt P35439+Q00960)
# Construct: this was used as a membrane specimen in an experiment; from tissue; host or cells: rat cerebral cortex membranes
# Sequence (Q00960 27-1482, other chains not shown): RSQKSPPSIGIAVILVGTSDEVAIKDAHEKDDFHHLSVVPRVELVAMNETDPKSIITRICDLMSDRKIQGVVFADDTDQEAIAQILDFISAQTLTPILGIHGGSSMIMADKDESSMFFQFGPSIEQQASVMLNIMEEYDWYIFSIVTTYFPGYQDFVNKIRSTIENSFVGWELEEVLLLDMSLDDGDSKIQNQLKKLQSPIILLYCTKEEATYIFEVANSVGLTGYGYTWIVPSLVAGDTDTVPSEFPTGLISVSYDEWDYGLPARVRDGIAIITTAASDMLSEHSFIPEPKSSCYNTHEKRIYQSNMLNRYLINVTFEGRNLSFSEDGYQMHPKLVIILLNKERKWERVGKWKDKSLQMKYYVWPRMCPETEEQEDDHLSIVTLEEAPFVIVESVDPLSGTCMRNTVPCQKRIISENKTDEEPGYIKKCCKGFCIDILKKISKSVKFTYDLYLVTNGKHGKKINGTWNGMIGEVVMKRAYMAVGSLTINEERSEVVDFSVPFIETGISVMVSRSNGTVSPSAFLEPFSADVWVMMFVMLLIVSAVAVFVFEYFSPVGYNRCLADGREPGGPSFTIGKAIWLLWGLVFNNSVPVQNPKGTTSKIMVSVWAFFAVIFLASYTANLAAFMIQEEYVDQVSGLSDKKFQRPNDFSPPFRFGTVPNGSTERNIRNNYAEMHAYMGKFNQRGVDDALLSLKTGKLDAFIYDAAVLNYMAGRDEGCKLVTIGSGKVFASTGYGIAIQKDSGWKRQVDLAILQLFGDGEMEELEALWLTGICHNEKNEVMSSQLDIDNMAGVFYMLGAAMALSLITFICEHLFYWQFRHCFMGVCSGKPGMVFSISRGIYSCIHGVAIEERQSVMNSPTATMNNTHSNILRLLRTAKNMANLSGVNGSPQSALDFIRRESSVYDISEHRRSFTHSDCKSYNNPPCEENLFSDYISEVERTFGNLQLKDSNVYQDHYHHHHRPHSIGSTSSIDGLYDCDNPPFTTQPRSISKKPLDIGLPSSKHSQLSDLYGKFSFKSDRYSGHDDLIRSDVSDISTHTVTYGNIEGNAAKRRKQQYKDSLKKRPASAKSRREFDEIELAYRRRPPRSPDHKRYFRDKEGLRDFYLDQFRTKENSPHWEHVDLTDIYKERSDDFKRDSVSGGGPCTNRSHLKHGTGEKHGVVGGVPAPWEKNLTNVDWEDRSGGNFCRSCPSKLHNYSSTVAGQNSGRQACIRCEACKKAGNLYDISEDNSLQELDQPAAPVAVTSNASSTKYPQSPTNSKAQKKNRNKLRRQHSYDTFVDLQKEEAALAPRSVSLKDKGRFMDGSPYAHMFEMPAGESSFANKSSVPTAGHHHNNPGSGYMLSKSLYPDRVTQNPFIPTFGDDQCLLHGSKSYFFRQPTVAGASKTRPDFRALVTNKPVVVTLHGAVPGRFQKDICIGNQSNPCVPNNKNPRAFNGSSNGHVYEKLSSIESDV
# EXPERIMENT DESCRIPTION: Experiment of binding to NMDA receptor (NR1/NR2B receptor), [3H]-Ifenprodil competition, rat cerebral cortex membrane
# DETAILS: [3H]-Ifenprodil 5 nM, GBR-12909 3 μM, ice temperature 120 minutes
# Protocol: Using Ifenprodil which is a NR1/NR2B subtype receptor-specific antagonist as a ligand, an experiment of receptor competition with a test compound was performed. A male Slc:Wistar rat was used as an animal, a decapitated brain was isolated, and cerebral cortex was fractionated. The cerebral cortex was homogenized with a 20-fold amount of an ice-cooled 50 mM Tris/HCl buffer (pH 7.4), and centrifuged at 4° C. and 27,500×g for 10 minutes. […]
METRIC NAME: IC50 (µM)
Answers are plain numbers, in µM.

Consider the reported IC50 for these compounds:
COMPOUND STRUCTURE: C[C@@H]1CN(c2ccc(OC(F)(F)F)cc2)CCN1C(=O)CNc1ccc2[nH]c(=O)oc2c1
IC50 (µM): 0.071
//
COMPOUND STRUCTURE: COc1c(F)cc(N2CCN(C(=O)CNc3ccc4[nH]c(=O)oc4c3)[C@H](C)C2)cc1F
IC50 (µM): 0.031
//
COMPOUND STRUCTURE: Cc1ccc(N2CCN(C(=O)C(=O)Nc3ccc4[nH]c(=O)oc4c3)C[C@H]2C)cc1
IC50 (µM): 0.129

Batch lookup, IC50 per entry.
1. COc1c(F)cc(N2CCN(CC(=O)Nc3ccc4[nH]c(=O)oc4c3)C[C@H]2C)cc1F
2. C[C@@H]1CN(C(=O)C(=O)Nc2ccc3[nH]c(=O)oc3c2)CCN1c1cc(F)cc(F)c1
3. COc1c(F)cc(N2CCN(CC(=O)Nc3ccc4[nH]c(=O)oc4c3)CC2)cc1F
4. C[C@@H]1CN(c2ccc(Cl)c(F)c2)CCN1C(=O)CNc1ccc2[nH]c(=O)oc2c1
5. C[C@@H]1CN(C(=O)CNc2ccc3[nH]c(=O)oc3c2)CCN1c1ccc(Cl)cc1

**Result**
[0.056, 0.114, 0.044, 0.026, 0.072]

* * *

Give pIC50 for every item shown.
# TESTED ON: mouse NMDA receptor (NR1 subunit and NR2B subunit co-expressed in HEK293 cells) (Mus musculus, UniProt P35438+Q01097)
# Sequence (Q01097 27-1482, other chains not shown): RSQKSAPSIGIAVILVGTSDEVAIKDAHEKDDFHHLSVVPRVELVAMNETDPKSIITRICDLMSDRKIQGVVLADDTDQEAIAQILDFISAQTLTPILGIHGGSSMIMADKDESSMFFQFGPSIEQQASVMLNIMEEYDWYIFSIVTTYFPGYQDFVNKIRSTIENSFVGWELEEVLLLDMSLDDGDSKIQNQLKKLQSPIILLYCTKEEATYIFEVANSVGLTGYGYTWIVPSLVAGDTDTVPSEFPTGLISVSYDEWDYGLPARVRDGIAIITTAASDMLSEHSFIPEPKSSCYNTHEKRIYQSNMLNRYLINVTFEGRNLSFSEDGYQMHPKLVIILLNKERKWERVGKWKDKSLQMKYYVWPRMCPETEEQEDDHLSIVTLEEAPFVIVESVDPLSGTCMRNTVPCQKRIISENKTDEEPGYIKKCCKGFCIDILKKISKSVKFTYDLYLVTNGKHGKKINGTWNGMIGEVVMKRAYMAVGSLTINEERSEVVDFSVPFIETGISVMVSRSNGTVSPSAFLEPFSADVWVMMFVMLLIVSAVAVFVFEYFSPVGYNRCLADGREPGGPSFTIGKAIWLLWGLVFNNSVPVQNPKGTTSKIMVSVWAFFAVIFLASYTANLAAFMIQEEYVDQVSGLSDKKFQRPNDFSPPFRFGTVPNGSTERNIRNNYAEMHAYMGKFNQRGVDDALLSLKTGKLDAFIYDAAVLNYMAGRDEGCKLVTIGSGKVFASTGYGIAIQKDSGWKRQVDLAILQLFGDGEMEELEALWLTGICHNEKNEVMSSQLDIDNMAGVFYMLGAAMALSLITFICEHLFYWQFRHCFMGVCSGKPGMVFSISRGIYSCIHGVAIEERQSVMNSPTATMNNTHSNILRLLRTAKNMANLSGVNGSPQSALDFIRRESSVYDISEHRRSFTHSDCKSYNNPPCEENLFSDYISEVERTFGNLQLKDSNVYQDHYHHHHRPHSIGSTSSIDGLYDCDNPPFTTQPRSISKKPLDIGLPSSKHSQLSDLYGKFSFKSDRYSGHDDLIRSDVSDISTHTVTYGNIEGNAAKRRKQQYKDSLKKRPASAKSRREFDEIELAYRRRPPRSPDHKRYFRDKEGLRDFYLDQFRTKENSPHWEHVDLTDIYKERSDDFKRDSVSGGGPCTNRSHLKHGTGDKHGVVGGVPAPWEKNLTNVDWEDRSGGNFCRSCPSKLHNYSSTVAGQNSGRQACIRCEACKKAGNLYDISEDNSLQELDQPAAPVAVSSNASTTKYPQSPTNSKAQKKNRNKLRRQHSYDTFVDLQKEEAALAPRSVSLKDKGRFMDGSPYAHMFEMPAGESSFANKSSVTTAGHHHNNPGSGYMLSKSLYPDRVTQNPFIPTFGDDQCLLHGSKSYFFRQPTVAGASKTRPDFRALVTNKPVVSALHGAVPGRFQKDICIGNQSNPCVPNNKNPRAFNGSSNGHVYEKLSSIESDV
# EXPERIMENT DESCRIPTION: Expression of NMDA receptor and measurement of Ca ion flow in amount (HEK293 cells, Fluo-3/AM, FDSS3000)
# DETAILS: Ca ion flow in induced with glutamic acid 20 μM/glycine 2 μM, read-out: Ca2+ 1050
One number for each entry, as −log10 of the molar value.

COMPOUND STRUCTURE: Cc1ccc(N2CCN(C(=O)C(=O)Nc3ccc4[nH]c(=O)oc4c3)CC2)cc1Cl
pIC50: 8.05

Give pIC50 for each listed item.
1. Cc1ccc(N2CCN(C(=O)C(=O)Nc3ccc4[nH]c(=O)oc4c3)C[C@H]2C)cc1Cl
2. Cc1cc(N2CCN(C(=O)C(=O)Nc3ccc4[nH]c(=O)oc4c3)CC2)ccc1Cl

**Result**
8.05
8.05
